tested on: Cryptococcus neoformans; assay: Antifungal activity against Cryptococcus neoformans ATCC 90112 after 72 hrs by broth microdilution method; format: functional; settings: ATCC 90112, 72 h
READOUT KIND: MIC (µg/mL)
Only the number, expressed in µg/mL, is required.

Briefly, MIC measured for N=C(N)c1ccc(OCCCC2CCN(CCCOc3ccc(C(=N)N)cc3)CC2)cc1 : 0.0078

Briefly, MIC measured for C[C@@H]1[C@H](O)[C@@H](C)/C=C/C=C/C=C/C=C/C=C/C=C/C=C/[C@H](O[C@@H]2O[C@H](C)[C@@H](O)[C@H](N)[C@@H]2O)C[C@@H]2O[C@](O)(C[C@@H](O)C[C@@H](O)[C@H](O)CC[C@@H](O)C[C@@H](O)CC(=O)O[C@H]1C)C[C@H](O)[C@H]2C(=O)O : 1

Briefly, MIC measured for C[C@@H](c1ncncc1F)[C@](O)(Cn1cncn1)c1ccc(F)cc1F : 0.0313

Briefly, MIC measured for OC(Cn1cncn1)(Cn1cncn1)c1ccc(F)cc1F : 1
